These measurements were taken from patent US20250011363A1.

The following substances are shown together with reported Binding affinity values.
- systemName: acetylcholine receptor (Homo sapiens, UniProt P02708)
- Sequence (P02708 21-457): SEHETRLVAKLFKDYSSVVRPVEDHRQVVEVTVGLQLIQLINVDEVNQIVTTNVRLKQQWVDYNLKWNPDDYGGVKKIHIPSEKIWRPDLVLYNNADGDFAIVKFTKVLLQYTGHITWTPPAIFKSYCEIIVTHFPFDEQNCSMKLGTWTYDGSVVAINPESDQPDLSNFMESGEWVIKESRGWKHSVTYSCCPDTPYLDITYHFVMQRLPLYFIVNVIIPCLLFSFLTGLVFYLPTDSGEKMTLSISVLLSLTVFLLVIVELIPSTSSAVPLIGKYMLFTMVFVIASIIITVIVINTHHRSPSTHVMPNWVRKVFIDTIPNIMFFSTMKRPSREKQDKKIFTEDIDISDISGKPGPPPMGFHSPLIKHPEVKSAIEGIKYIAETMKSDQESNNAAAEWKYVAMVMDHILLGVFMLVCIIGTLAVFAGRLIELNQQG
- testDescription: SPR binding affinity (RU) of optimized 5mer/6mer/7mer peptides, Examples 6-7
- experimentalConditions: 6mer-1 Top sequence; SPR; peptides tested at 10 μM
- Protocol: Based on the frequencies of occurrence of the top 7 amino acids from Table 7 in Example 5, 600 peptides comprising these amino acids (top combinations) and those comprising the 13 less frequently occurring amino acids (bottom combinations) were synthesized for each series of 5mer, 6mer-1, and 6mer-2. The binding affinity of each sequence for the acetylcholine receptor was measured using Surface Plasmon Resonance (SPR) analysis method. The peptides were tested at a concentration of 10 μM. […]
Please state the figure in Ru; there is no need to write the unit.

| substance | systemName | Binding affinity / Ru |
| --- | --- | --- |
| 6mer-1-355 (RKVFYR) | acetylcholine receptor (Homo sapiens, UniProt P02708) | 148 |
| 6mer-1-378 (KRSLQK) | acetylcholine receptor (Homo sapiens, UniProt P02708) | 153 |
| 6mer-1-295 (KRQRCR) | acetylcholine receptor (Homo sapiens, UniProt P02708) | 148 |

Quickly give me recorded Binding affinity for 6mer-1-245 (RRGFRR)
142

Quickly give me recorded Binding affinity for 6mer-1-365 (KKRICK)
142

###

The following substances are shown together with reported Binding affinity values.
- systemName: acetylcholine receptor (Homo sapiens, UniProt P02708)
- testDescription: SPR binding affinity (RU) of optimized 5mer/6mer/7mer peptides, Examples 6-7
- experimentalConditions: SPR, Resonance Units; peptides tested at 10 μM; 6mer-1 Bottom sequence
Please state the figure in Ru; there is no need to write the unit.

Please report Binding affinity with acetylcholine receptor (Homo sapiens, UniProt P02708) for item 6mer-1-1060 (KRYNVR) .
21

Please report Binding affinity with acetylcholine receptor (Homo sapiens, UniProt P02708) for item 6mer-1-1155 (RKKEKR) .
28

Please report Binding affinity with acetylcholine receptor (Homo sapiens, UniProt P02708) for item 6mer-1-1059 (RRETVK) .
39

Please report Binding affinity with acetylcholine receptor (Homo sapiens, UniProt P02708) for item 6mer-1-1015 (KREEWR) .
26

Please report Binding affinity with acetylcholine receptor (Homo sapiens, UniProt P02708) for item 6mer-1-1106 (KRFMNK) .
39

Please report Binding affinity with acetylcholine receptor (Homo sapiens, UniProt P02708) for item 6mer-1-1124 (KKDEIR) .
21

Please report Binding affinity with acetylcholine receptor (Homo sapiens, UniProt P02708) for item 6mer-1-1036 (KKITFR) .
21

Please report Binding affinity with acetylcholine receptor (Homo sapiens, UniProt P02708) for item 6mer-1-1111 (RRASPR) .
38

Please report Binding affinity with acetylcholine receptor (Homo sapiens, UniProt P02708) for item 6mer-1-1148 (RRCSHR) .
31

Please report Binding affinity with acetylcholine receptor (Homo sapiens, UniProt P02708) for item 6mer-1-1170 (KKYNPK) .
25

Please report Binding affinity with acetylcholine receptor (Homo sapiens, UniProt P02708) for item 6mer-1-1098 (RKKDMR) .
42

Please report Binding affinity with acetylcholine receptor (Homo sapiens, UniProt P02708) for item 6mer-1-1078 (RRPDIK) .
25

Please report Binding affinity with acetylcholine receptor (Homo sapiens, UniProt P02708) for item 6mer-1-1185 (KKEMMK) .
29

Please report Binding affinity with acetylcholine receptor (Homo sapiens, UniProt P02708) for item 6mer-1-1077 (RRKWGR) .
24

Please report Binding affinity with acetylcholine receptor (Homo sapiens, UniProt P02708) for item 6mer-1-1126 (RRHCDK) .
41

Please report Binding affinity with acetylcholine receptor (Homo sapiens, UniProt P02708) for item 6mer-1-1000 (RKMSHR) .
28

Please report Binding affinity with acetylcholine receptor (Homo sapiens, UniProt P02708) for item 6mer-1-1016 (KRHTHR) .
21
